Measured Tm1 by item
Test name: Thermostability (Tm, Tonset, Tagg) by Nanotemper DSF
Assay type: physicochemical
Set-up: key: temperatures in °C
Condition: anti-Der p2 VHH; first melting point observed; in °C (unit assumed)
Would you mind answering with just the numeric figure?

Check out these entries, answers already filled in.
SDAB22111-1-H12 (VHH, anti-Der p2 alpaca VHH; prokaryotic expression) VHH: QVQLVESGGGLVQPGGSLRLSCAASRSIDRFPAMGWYRQAPGKKRELVAAISSANTRTKYADSVKGRFTISRDNAENTMYLQMNSLKPEDTAVYYCNVFPRPVQGYWGQGTQVTVSS ... 51.93
SDAB22111-1-C1 (VHH, anti-Der p2 alpaca VHH; prokaryotic expression) VHH: QVQLVESGGGLVQPGGSLRLSCAASASFVGAYAMYWFRQATGKQRELVAFITSGNSTNYADSVKGRFTISRDYTKNTVYLQMNKLKPEDTAVYSCNLVTSRGDYWGQGTQVTVSS ... 54.52
SDAB22111-1-D6 (VHH, anti-Der p2 alpaca VHH; prokaryotic expression) VHH: DVQLVESGGGLVQPGGSLRLSCVASGLTFSYYDMKWHRQAPGKERELVAAIIEGGRTMYADSVKGRFTISRDSPKKSVYLQMNNLKSEDTAVYYCNAVRARFRGLGNDDAWGQGTQVTVSS ... 49.02

Need Tm1 of SDAB22111-1-D3 (VHH, anti-Der p2 alpaca VHH; prokaryotic expression) VHH: QLQLVESGGGLVQPGGSLRLSCVVSGRTLSGHNMGWFRQAPGKEREFVARINSNGGTTRYADAVKGRFTISRDNAKNTAYLQMNSLKSEDTAVYYCRLVGPAGYWGQGTQVTVSS , thanks.
53.78
